Source listed as the OPERA property sets (Mansouri et al. 2018).

logP listing for selected molecules.
measured-attribute: logP

INSERT INTO results (molecule, test_value) VALUES
  ('COC(=O)c1c(C(F)F)nc(C(F)(F)F)c(C2=NCCS2)c1CC(C)C', 3.89),
  ('CC(C)N(Cc1ccccc1)C(=O)C(C)(C)C', 3),
  ('CCOP(=O)(SC(C)CC)SC(C)CC (configuration not stated)', 3.9),
  ('C#CCOC(=O)[C@@H](C)Oc1ccc(Oc2ncc(Cl)cc2F)cc1', 3.9),
  ('CCSC(=O)COc1ccc(Cl)cc1C', 4.05),
  ('CC(C)NC(=O)N1CC(=O)N(c2cc(Cl)cc(Cl)c2)C1=O', 3),
  ('N#Cc1nn(-c2c(Cl)cc(C(F)(F)F)cc2Cl)c(N)c1S(=O)C(F)(F)F (configuration not stated)', 4);
